The measured values listed here are drawn from patent EP4620954A1.

Target system: CDK1/Cyclin B (Homo sapiens)
Construct: purchased Invitrogen PR4768C
Sequence (P06493 whole entry): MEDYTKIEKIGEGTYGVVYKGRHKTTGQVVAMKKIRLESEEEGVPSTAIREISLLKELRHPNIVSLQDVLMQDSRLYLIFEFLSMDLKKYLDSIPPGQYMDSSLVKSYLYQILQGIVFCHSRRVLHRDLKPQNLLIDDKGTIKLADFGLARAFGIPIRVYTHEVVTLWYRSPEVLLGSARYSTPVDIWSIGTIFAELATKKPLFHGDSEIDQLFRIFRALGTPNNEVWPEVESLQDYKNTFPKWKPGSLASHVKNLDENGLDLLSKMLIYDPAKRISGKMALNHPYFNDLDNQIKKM
Sequence (P14635 whole entry partner): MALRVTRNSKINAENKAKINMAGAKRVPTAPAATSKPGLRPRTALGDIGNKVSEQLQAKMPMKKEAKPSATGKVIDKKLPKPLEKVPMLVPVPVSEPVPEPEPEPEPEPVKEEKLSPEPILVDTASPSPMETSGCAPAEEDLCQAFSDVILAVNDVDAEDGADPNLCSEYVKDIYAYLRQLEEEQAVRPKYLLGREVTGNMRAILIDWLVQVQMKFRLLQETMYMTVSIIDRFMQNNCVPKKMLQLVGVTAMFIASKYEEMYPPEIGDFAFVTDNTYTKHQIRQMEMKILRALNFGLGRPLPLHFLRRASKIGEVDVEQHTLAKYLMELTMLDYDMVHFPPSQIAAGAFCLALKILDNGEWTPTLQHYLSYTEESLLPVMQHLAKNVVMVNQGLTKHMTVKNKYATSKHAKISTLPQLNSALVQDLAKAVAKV
Protocol details: CDK1 kinase activity assay (TR-FRET)
Type: biochemical
Condition notes: TR-FRET; peptide mix containing 10 µM ATP; 90 min at 23 °C; read-out: CDK1/Cyclin B1 IC50
Catalogue of IC50 readings, one per entry.
Respond numerically; units are nM and should not be typed.

Example molecules with recorded IC50:
COCc1cc(C(=O)Nc2cc([C@H]3CC[C@@H](OC(=O)NC(C)(C)C#N)C3)[nH]n2)n(C)n1 [Compound 5] | 845
CCN1CCN(Cc2ccc(Nc3cc([C@H]4CC[C@@H](OC(=O)NC(C)C)C4)[nH]n3)cc2)CC1 [Compound 137] | 976

Let us move to another entry and its IC50.
Reported IC50 for C=C(C)c1ccncc1O[C@@H]1CO[C@H](c2cc(NC(=O)Cc3cccc(P(C)(C)=O)c3)n[nH]2)C1 [Compound 31] was 496

###

Protocol details: Permeability and transporter substrate evaluation, Caco-2 monolayer
Format: in vitro ADME
Condition notes: human, Caco-2, Table 5 experimental system; Caco-2, 2.00 µM, 120 min
Parameter measured: Papp A→B at 2 h, 2 µM
Answer format: number, then unit.

Example molecules with recorded Papp A→B at 2 h, 2 µM:
COCc1cc(C(=O)Nc2cc(C3CCC(OC(=O)NC(C)C)C3)[nH]n2)n(C)n1 (stereo not drawn) [PF-07104091, reference compound] | 4.3 ×10⁻⁶ cm/s
CC(C)NC(=O)O[C@@H]1CC[C@H](c2cc(Nc3ccc(CN4CCN(C)CC4)c(F)c3)n[nH]2)C1 | 7.08 ×10⁻⁶ cm/s

Let us move to another entry and its Papp A→B at 2 h, 2 µM.
Reported Papp A→B at 2 h, 2 µM for `CC(C)NC(=O)O[C@@H]1CC[C@H](c2cc(Nc3ccc(N4CCN(C)CC4)cn3)n[nH]2)C1` was 2.4 ×10⁻⁶ cm/s

###

Protocol details: In-vitro liver microsomal stability, rat
Format: in vitro ADME
Condition notes: SD rat liver microsomes 0.5 mg/mL, 1 µM, NADPH 1 mM, 37 °C
Catalogue of Remaining amount% at 60 min Rat readings, one per entry.

Example molecules with recorded Remaining amount% at 60 min Rat:
COCc1cc(C(=O)Nc2cc([C@H]3CC[C@@H](OC(=O)NC(C)C#N)C3)[nH]n2)n(C)n1 (stereo partly shown) | 85.0%
C#CC(C)NC(=O)O[C@@H]1CC[C@H](c2cc(NC(=O)c3cc(COC)nn3C)n[nH]2)C1 (stereo partly shown) | 77.9%
Cn1nc(CS(C)(=O)=O)cc1C(=O)Nc1cc([C@@H]2C[C@H](OC(=O)N3CCC3(C)C)CO2)[nH]n1 | 81.2%

Reported Remaining amount% at 60 min Rat for `CC(C)NC(=O)O[C@@H]1CC[C@H](c2cc(Nc3ccc(N4CCN(C)CC4)cc3)n[nH]2)C1` was 27.7%

###

Protocol details: Permeability and transporter substrate evaluation, Caco-2 monolayer
Type: in vitro ADME
Condition notes: human, Caco-2, Table 4 experimental system, Caco-2, 2.00 µM
Label key: label 1 means Papp B→A at 120 min, 2 µM under 30 ×10⁻⁶ cm/s; label 0 means Papp B→A at 120 min, 2 µM of 30 ×10⁻⁶ cm/s or more.

Worked cases, answers included:
CC(C)NC(=O)O[C@@H]1CC[C@H](c2cc(Nc3ccc(N4CCN(C)CC4)cc3)n[nH]2)C1 [Compound 9] | label 0
COCc1cc(C(=O)Nc2cc([C@H]3CC[C@@H](OC(=O)NC(C)C#N)C3)[nH]n2)n(C)n1 (stereo partly shown) [Compound 1] | label 1
CC(C)NC(=O)O[C@@H]1CC[C@H](c2cc(NC(=O)c3cc(CS(C)(=O)=O)nn3C)n[nH]2)C1 [Compound 7] | label 1
COCc1cc(C(=O)Nc2cc([C@H]3CC[C@@H](OC(=O)NCC=C(F)F)C3)[nH]n2)n(C)n1 [Compound 3] | label 0
COCc1cc(C(=O)Nc2cc([C@H]3CC[C@@H](OC(=O)NC45CC6CC(CC(C6)C4)C5)C3)[nH]n2)n(C)n1 [Compound 6] | label 1

# evaluate next
Record COCc1cc(C(=O)Nc2cc([C@H]3CC[C@@H](OC(=O)N(C)C4CCC(=C(F)F)CC4)C3)[nH]n2)n(C)n1 (stereo partly shown) [Compound 2] : is its Papp B→A at 120 min, 2 µM strictly below 30 ×10⁻⁶ cm/s? label 0

###

Protocol details: Permeability and transporter substrate evaluation, Caco-2 monolayer
Type: in vitro ADME
Condition notes: human, Caco-2, Table 4 experimental system; Caco-2, 2.00 µM, 120 min
Parameter measured: Papp A→B at 2 h, 2 µM (×10⁻⁶ cm/s)
Respond numerically; units are ×10⁻⁶ cm/s and should not be typed.

Reported Papp A→B at 2 h, 2 µM for COCc1cc(C(=O)Nc2cc(C3CCC(OC(=O)NC(C)C)C3)[nH]n2)n(C)n1 (stereo not shown) [PF-07104091, reference compound] was 0.106

###

Catalogue of IC50 readings, one per entry.
Target system: CDK2/Cyclin E1 (Homo sapiens)
Construct: purchased Invitrogen PV6296
Protocol details: CDK2 kinase antagonistic activity assay (TR-FRET)
Format: biochemical
Condition notes: TR-FRET; peptide mix containing 10 µM ATP; 90 min at 23 °C; read-out: CDK2/Cyclin E1 IC50
Experimental: Compounds were dissolved in DMSO and serially diluted 3-fold to generate 11 concentrations. 100 nL of each compound was added to 384-well plates, followed by the addition of 5 µL of 2× CDK2/Cyclin E1 or CDK1/Cyclin B enzyme mixed solution. […] After the incubation was completed, the reaction was stopped with a detection buffer containing 15 mM EDTA and 2 nM Eu-anti-P-MBP antibody. […] The TR-FRET ratio (value at 665 nm/value at 615 nm) was automatically calculated by Envision. […]
Respond numerically; units are nM and should not be typed.

Example compounds with recorded IC50:
CC(C)NC(=O)O[C@@H]1CC[C@H](c2cc(NC(=O)c3cc(CS(C)(=O)=O)nn3C)n[nH]2)C1 | 0.64
C=C(C)c1ccncc1O[C@@H]1CC[C@H](c2cc(NC(=O)Cc3ccc(N4CCCC4=O)cc3)n[nH]2)C1 | 0.92
Cn1nc(CS(C)(=O)=O)cc1C(=O)Nc1cc([C@H]2CC[C@@H](OC(=O)N3CCC3(C)C)C2)[nH]n1 | 0.16
CC(C)NC(=O)O[C@@H]1CC[C@H](c2cc(Nc3ccc(N4CCN(C)CC4)cn3)n[nH]2)C1 | 10.7

Reported IC50 for COCc1cc(C(=O)Nc2cc([C@H]3CC[C@@H](OC(=O)NC(C)C#N)C3)[nH]n2)n(C)n1 (stereo partly shown) was 2.24

###

Target system: CDK2/Cyclin E1 (Homo sapiens, UniProt P24941)
Construct: purchased Invitrogen PV6296
Protocol details: CDK2 kinase antagonistic activity assay (TR-FRET)
Type: biochemical
Condition notes: TR-FRET; peptide mix containing 10 µM ATP; 90 min at 23 °C; read-out: CDK2/Cyclin E1 IC50
Parameter measured: pIC50
Note on units: pIC50 is unitless, being -log10 of a concentration expressed in mol/L.

Example compounds with recorded pIC50:
CC1(C)CCN1C(=O)O[C@@H]1CC[C@H](c2cc(NC(=O)Cc3cccc(P(C)(C)=O)c3)n[nH]2)C1 | 8.30
CC(C)NC(=O)O[C@@H]1CC[C@H](c2cc(Nc3ccc(C4CCN(C)CC4)cn3)n[nH]2)C1 | 8.16
COCc1cc(C(=O)Nc2cc([C@H]3CC[C@@H](OC(=O)NCC=C(F)F)C3)[nH]n2)n(C)n1 | 8.91
C#CC(C)NC(=O)O[C@@H]1CC[C@H](c2cc(NC(=O)c3cc(COC)nn3C)n[nH]2)C1 (some centres unmarked) | 8.59

Let us move to another entry and its pIC50.
Reported pIC50 for `CC(C)NC(=O)O[C@@H]1CC[C@H](c2cc(Nc3ccc(CN4CCNCC4)cc3)n[nH]2)C1` was 8.26
